Test: compounds binding Alexa647 anti-His antibody – biochemical, small-molecule microarray, 635 nm fluorescence, artefact control for SMM control protein annotation, primary screen (AID 1128);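 note: score merges feature fluorescence with signal-to-noise for each printed compound spot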
Conditions: higher = more signal
observed.property: composite z-score
Output spec: single numeric token, no unit.

Previously resolved entries follow.
compound	observed.property	numeric.result
CC1C=C(CCCO)C=C(C(=O)OCCS(C)(=O)=O)C(C(=O)OCCS(C)(=O)=O)=CN1Cc1cccc(OC(F)(F)F)c1 (configuration not stated)	composite z-score	1
NC(=O)NCC#Cc1ccc2c(c1)[C@]1(C(=O)N2)[C@H](c2ccc(OCCO)cc2)N2[C@H](c3ccccc3)[C@H](c3ccccc3)OC(=O)[C@H]2[C@@H]1C(=O)N1CCN(c2ncccn2)CC1	composite z-score	-0.192
NC(=O)[C@@H]1[C@H]2C(=O)O[C@H](c3ccccc3)[C@H](c3ccccc3)N2[C@H](c2ccccc2OCCO)[C@@]12C(=O)Nc1ccc(C#CCCO)cc12	composite z-score	0.553
CCOc1cc(C(O)C2C=CC3C(=O)NC(=O)C3N2Nc2ccccn2)ccc1O (configuration not stated)	composite z-score	0.227
CC(C)c1ccc(NN2C(C(O)c3ccccn3)C=CC3C(=O)N(c4ccccc4)C(=O)C32)cc1 (configuration not stated)	composite z-score	0.75
CCCCC(CC)C(O)C1C=CC2C(=O)NC(=O)C2N1Nc1ccccn1 (configuration not stated)	composite z-score	2.27

Continue with the next compound.
Need composite z-score, item CCOC(=O)C1=CC[C@@H](c2cccc(Br)c2)N(S(=O)(=O)c2ccc(C)cc2)[C@H]1c1ccc([N+](=O)[O-])cc1
0.822

----------
Experiment: blockers of DNA damage checkpoint Chk1 activation – imaging, HeLa, hydroxyurea, phospho-Chk1 nuclear intensity, primary screen (AID 1187); note: test concentration not given here
Settings: hydroxyurea-induced phospho-Chk1 immunofluorescence imaging, higher = more signal
observed.property: z-score
Output spec: single numeric token, no unit.

compound	z-score
CCN(CC)c1ccc(N2CC=CC34O[C@@H]5/C=C\CCCOC(=O)C5[C@H]3C(=O)N(CCCCCO)[C@@H]4C2=O)cc1 (some centres not stated)	0.34
CC1=C2[C@@H](CCc3ccccc3)OB(O)C[C@@H]2[C@@H]2C(=O)C=CC(=O)[C@@H]2C1	1.1
C=CCC(OC(C)=O)[C@@H]1[C@@H](N(Cc2cccc3ccccc23)C(=O)Cc2ccc(F)cc2)c2cc(OCCCO)ccc2N1C(=O)Cc1ccc(OC)cc1 (some centres not stated)	-0.301

Continue with the next compound.
Need z-score, item COc1cc2c(cc1OC)CN(C(=O)[C@@H]1[C@H]3C(=O)O[C@H](c4ccccc4)[C@H](c4ccccc4)N3[C@H](c3ccc(OCCO)cc3)[C@@]13C(=O)Nc1ccc(C#CCCO)cc13)CC2
0.595

----------
Target: Torsin-1A (Homo sapiens)
Assay: torsin A mutant lysate binding on microarrays – cell lysate, small-molecule microarray, COS7 lysate, 635/667 nm fluorescence, primary screen (AID 1150);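 note: score pools 667 nm emission and signal to noise measuring lysate protein binding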
Settings: COS7 hTOR1A mutant lysate, 635 nm fluorescence, higher = more signal
Each item that follows carries a reported composite z-score.
Output spec: single numeric token, no unit.

line.notation	composite z-score
COC(=O)[C@@]1(Cc2ccc(F)cc2)[C@H]2c3cc(C(=O)N4CCCC4)n(Cc4ccccc4)c3C[C@H]2CN1C(=O)c1ccccc1	0.72
C=CCOC(=O)[C@H]1[C@@H]2C(=O)O[C@@H](c3ccccc3)[C@@H](c3ccccc3)N2[C@@H](c2ccc(OCCOC(=O)[C@H]3C[C@H]4C(=O)N[C@@H](CCCCN(C)C)C(=O)N4[C@H]3c3ccc(O)cc3)cc2)[C@]12C(=O)Nc1ccccc12	0.674

Fill in the recorded composite z-score for this compound, with Torsin-1A (Homo sapiens) as test system: COCCOC(=O)N1C(=O)[C@@]2(c3cc(C#CCNC(N)=O)ccc31)[C@H](C(N)=O)[C@H]1C(=O)O[C@H](c3ccccc3)[C@H](c3ccccc3)N1[C@@H]2c1ccc(OCCO)cc1
1.26

Fill in the recorded composite z-score for this compound, with Torsin-1A (Homo sapiens) as test system: COc1ccccc1CN1C(=O)c2ccccc2[C@@]2(Cc3ccccc3N(C3CC3)C2=O)[C@@H]1c1ccc(CO)cc1
-0.821

Data provenance is PubChem BioAssay.
